Values from patent US20070161611A1

# Assay Procedure: in vitro
# Format: cell-based
# Measurement Parameters: bovine
Below: a set of entries, each annotated with reported CC50.
Just the number please, in µM, no unit attached.

Ask: Can you share its CC50? I mean this compound: "C[C@]12CC[C@@H]3c4cc(C56CC7CC(CC(C7)C5)C6)c(O)cc4CC[C@H]3[C@@H]1CC/C2=N\N"
Reply: 34.5

Ask: Can you share its CC50? I mean this compound: "C[C@]12CC[C@@H]3c4cc(C56CC7CC(CC(C7)C5)C6)c(O)cc4CC[C@H]3[C@@H]1CC[C@@H]2O"
Reply: 40.1
